These entries and their values trace back to PubChem BioAssay AID2237.

- TARGET UNDER TEST: Short transient receptor potential channel 4 (Mus musculus)
- PROCEDURE DETAILS: activators of mouse TRPC4 channel, primary screen, Fluo4 calcium, HEK293 TRPC4beta/mu-opioid cells (AID 2237);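 as to B-score: positive B-score marks a calcium rise read as TRPC4 activation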
- STATED CONDITIONS: Fluo4 calcium fluorescence, at 10 µM; active compounds read high
Screen size: about 310,000 compounds; about 1,500 (0.48%) were called active. For the sample, actives were picked, then their nearest neighbours and some compounds at random.

- COMPOUND: "Cn1c(C(=O)N2CCC(C(=O)N3CCC4(CC3)OCCO4)CC2)cc2sccc21"
  B-score: "inactive"
- COMPOUND: "c1ccc(CCNC2CCCCCC2)cc1"
  B-score: "inactive"
- COMPOUND: "C=CCN1C(=O)C2(C(C(=O)OCC)=C(N)Oc3c2c(=O)oc2ccccc32)c2ccccc21 (centres undefined)"
  B-score: "inactive"
- COMPOUND: "c1ccc(CCN2CCC3(CC2)OCCO3)cc1"
  B-score: "inactive"
- COMPOUND: "CCCCC(=O)N/N=C/c1c(O)n(CCC2=CCCCC2)c(=O)[nH]c1=O"
  B-score: "inactive"
- COMPOUND: "Cc1nc2ccccc2c(=O)n1-c1ccc(Cl)cc1Cl"
  B-score: "inactive"
- COMPOUND: "C[N+]1(C)CCOC(O)(c2ccc(-c3ccc(C4(O)C[N+](C)(C)CCO4)cc3)cc2)C1 (centres undefined)"
  B-score: "inactive"
- COMPOUND: "COc1ccc(N=Cc2c(O)n(C)c(=O)[nH]c2=O)cc1"
  B-score: "inactive"
- COMPOUND: "Cc1ccnc(-n2c(C)cc(/C=C3\\C(=O)NC(=S)N(C)C3=O)c2C)c1"
  B-score: "inactive"
- COMPOUND: "Cc1ccc(CN2CCCC(C(=O)c3ccc4c(c3)OCO4)C2)cc1C (centres undefined)"
  B-score: "inactive"
- COMPOUND: "COC(=O)C1=C(c2cc3ccccc3s2)C[C@@H]2CC[C@H]1N2C(=O)NCCO"
  B-score: "72 (active)"
- COMPOUND: "CC(=O)N(C1=NCCCS1)c1ccccc1F"
  B-score: "44 (active)"
- COMPOUND: "Cc1nc2ccccn2c1P(=S)(N1CCCCC1)N1CCCCC1"
  B-score: "87 (active)"
- COMPOUND: "CCCCC(=O)N/N=C/c1c(O)n(-c2ccccc2)c(=O)[nH]c1=O"
  B-score: "inactive"
- COMPOUND: "c1ccc2sc(C3CCCNC3)nc2c1 (centres undefined)"
  B-score: "159 (active)"
- COMPOUND: "CN(C)CCN(CC1CCCN(Cc2ccccc2F)C1)C(=O)Cc1ccc(F)c(F)c1 (centres undefined)"
  B-score: "inactive"
- COMPOUND: "N#Cc1ccc(Cn2cc(C(=O)c3ccco3)c3ccccc32)cc1"
  B-score: "inactive"
- COMPOUND: "c1ccc2sc(N3CCNCC3)nc2c1"
  B-score: "173 (active)"
- COMPOUND: "COC(=O)C1=C(c2cc3ccccc3s2)C[C@@H]2CC[C@H]1N2C(=O)NC(C)C"
  B-score: "inactive"
